Entries and their Kass t-PA values follow.
tgt: t-PA (Homo sapiens, UniProt P00750)
Construct: purchased American Diagnostica, Greenwich, Conn
Sequence (P00750 36-562): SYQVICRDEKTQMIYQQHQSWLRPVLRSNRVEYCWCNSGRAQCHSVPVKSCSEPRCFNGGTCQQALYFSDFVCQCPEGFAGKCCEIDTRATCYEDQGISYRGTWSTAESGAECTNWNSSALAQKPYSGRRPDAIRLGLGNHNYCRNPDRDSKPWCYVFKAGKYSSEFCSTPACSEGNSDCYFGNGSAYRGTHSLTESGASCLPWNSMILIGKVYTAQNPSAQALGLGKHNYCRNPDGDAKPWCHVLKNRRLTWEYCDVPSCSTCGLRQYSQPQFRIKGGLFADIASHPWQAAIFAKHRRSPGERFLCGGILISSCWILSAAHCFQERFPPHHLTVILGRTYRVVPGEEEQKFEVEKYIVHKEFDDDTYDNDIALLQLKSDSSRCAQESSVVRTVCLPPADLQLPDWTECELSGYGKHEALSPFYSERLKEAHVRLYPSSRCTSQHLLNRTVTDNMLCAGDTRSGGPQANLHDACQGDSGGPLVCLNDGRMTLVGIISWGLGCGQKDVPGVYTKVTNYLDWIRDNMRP
protocol: Kass with t-PA, chromogenic substrate
Type: biochemical
assay_setup: substrate H-D-Ile-Pro-Arg-p-nitroanilide
Text: […]
Counter-ions that a name gives are not always drawn.

The cases that follow already have their Kass t-PA on record.
{"columns": ["compound", "Kass t-PA"],
 "data": [
  ["CC(C)CC[C@H]1C[C@@H](C(=O)NCc2ccc(C(=N)N)cc2)N(C(=O)[C@@H](CC2CCCCC2)NCC(=O)O)C1 (relative stereo)", "0.04 × 10^6 (L/mole)"],
  ["O=C(O)CN[C@H](CC1CCCCC1)C(=O)N1CCC[C@H]1C(=O)NCCC1CCNCC1", "< 0.001 × 10^6 (L/mole)"],
  ["CCS(=O)(=O)N[C@H](Cc1ccccc1)C(=O)N1[C@H](C(=O)NCc2ccc(C(=N)N)cc2)C[C@@H]2CCCC[C@@H]21 (relative stereo)", "0.77 × 10^6 (L/mole)"],
  ["NCc1ccc(CNC(=O)[C@@H]2CCCN2C(=O)[C@H](N)Cc2ccccc2)cc1 [Example 10, D-Phe-Pro-p-NHCH2 C6 H4 CH2 NH2.HCl]", "0.00055 × 10^6 (L/mole)"],
  ["CCOC(=O)N[C@H](Cc1ccccc1)C(=O)N1CCC[C@H]1C(=O)NCCCCNC(=N)N [Example 3, EtOCO-D-Phe-Pro-Agm.HCl]", "0.033 × 10^6 (L/mole)"],
  ["O=C(O)CN[C@H](CC1CCCCC1)C(=O)N1CCC[C@H]1C(=O)NCC1CCNCC1", "< 0.001 × 10^6 (L/mole)"],
  ["NC[C@H]1CC[C@H](CNC(=O)[C@@H]2CCCN2C(=O)[C@H](N)Cc2ccccc2)CC1 (relative stereo)", "0.000042 × 10^6 (L/mole)"],
  ["CCS(=O)(=O)N[C@H](Cc1ccccc1)C(=O)N1CCC[C@H]1C(=O)NCc1cccc(C(=N)N)c1", "< 0.001 × 10^6 (L/mole)"]
]}

Recorded Kass t-PA (compound "CCS(=O)(=O)N[C@H](Cc1ccccc1)C(=O)N1CCC[C@H]1C(=O)NCCCc1cccc(C(=N)N)c1" ): < 0.001 × 10^6 (L/mole)

Recorded Kass t-PA (compound N=C(N)NC/C=C/CNC(=O)[C@@H]1CCCN1C(=O)[C@H](N)Cc1ccccc1 (relative stereo) ): 0.0012 × 10^6 (L/mole)

Entry source: patent US5707966A
